testSystem: Sodium channel protein type 9 subunit alpha (Mus musculus, UniProt Q62205)
Sequence (Q62205 whole entry): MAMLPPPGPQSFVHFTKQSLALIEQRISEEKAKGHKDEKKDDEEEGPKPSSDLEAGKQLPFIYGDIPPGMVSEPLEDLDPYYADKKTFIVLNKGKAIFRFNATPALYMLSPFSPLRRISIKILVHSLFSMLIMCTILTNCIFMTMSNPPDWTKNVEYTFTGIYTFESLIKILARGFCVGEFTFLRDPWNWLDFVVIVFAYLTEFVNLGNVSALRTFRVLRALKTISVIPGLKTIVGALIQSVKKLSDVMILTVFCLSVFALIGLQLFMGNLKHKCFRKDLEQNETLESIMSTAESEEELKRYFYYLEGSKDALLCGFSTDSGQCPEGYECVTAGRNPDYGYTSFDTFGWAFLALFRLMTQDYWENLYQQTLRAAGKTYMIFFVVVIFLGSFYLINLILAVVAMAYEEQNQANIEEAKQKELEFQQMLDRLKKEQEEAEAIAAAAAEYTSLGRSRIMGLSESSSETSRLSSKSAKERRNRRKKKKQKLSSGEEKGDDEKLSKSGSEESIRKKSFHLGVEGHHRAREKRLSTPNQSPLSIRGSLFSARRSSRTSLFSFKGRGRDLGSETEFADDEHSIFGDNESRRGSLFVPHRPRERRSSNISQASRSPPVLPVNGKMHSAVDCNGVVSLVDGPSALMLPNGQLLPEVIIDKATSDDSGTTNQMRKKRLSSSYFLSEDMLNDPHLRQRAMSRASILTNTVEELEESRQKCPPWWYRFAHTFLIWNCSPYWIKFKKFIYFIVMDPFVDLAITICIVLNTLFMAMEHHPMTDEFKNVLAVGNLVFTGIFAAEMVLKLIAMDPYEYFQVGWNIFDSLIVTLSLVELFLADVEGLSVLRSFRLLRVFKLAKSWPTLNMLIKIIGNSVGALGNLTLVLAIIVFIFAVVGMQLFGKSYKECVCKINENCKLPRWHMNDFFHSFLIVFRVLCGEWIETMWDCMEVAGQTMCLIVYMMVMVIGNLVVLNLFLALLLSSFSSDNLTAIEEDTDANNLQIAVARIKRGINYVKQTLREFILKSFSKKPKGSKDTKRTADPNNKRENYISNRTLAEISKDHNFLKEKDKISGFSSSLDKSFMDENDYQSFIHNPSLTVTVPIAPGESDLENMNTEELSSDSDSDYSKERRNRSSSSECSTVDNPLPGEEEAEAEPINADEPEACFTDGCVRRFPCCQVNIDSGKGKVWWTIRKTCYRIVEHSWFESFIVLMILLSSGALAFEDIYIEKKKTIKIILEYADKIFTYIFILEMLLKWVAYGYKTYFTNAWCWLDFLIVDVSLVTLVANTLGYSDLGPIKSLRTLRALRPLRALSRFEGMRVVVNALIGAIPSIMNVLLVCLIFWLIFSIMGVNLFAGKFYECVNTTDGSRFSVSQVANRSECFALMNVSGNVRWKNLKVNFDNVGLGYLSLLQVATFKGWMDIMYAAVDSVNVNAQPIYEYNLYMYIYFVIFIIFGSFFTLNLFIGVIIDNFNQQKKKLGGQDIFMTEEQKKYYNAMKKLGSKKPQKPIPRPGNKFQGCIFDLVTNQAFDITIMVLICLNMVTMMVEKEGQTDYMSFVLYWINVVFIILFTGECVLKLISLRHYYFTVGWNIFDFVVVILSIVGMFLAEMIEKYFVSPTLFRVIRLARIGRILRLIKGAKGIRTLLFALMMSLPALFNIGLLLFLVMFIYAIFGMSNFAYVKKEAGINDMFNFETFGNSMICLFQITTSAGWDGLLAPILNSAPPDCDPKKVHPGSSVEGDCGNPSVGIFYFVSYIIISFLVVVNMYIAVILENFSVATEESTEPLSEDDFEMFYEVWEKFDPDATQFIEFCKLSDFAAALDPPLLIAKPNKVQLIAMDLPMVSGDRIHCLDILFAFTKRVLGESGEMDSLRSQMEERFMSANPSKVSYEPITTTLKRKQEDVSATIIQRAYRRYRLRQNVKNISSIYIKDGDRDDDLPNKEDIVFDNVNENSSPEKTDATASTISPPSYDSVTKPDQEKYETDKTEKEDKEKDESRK
procedureSummary: Inhibition of mouse NaV1.7 by whole cell voltage clamp method
pIC50: −log10 of the molar value.
outcomeMeasure: pIC50

Would you please look over these solved cases?
>>> df
                             compoundstring  outcomemeasure  endpointvalue
0  O=S(=O)(Nc1ccncn1)c1ccc2c(-c3ccc(C(F)(F)F)cc3C3=CCNCC3)cccc2c1           pIC50           5.37
1  N#Cc1cc(C(F)(F)F)ccc1N1CCOc2cc(S(=O)(=O)Nc3nccs3)c(Cl)cc21           pIC50           7.00

a: Cn1nccc1-c1ccccc1Oc1ccc(S(=O)(=O)Nc2nccs2)cc1C#N
b: N#Cc1cc(C(F)(F)F)ccc1N1CCOc2cc(S(=O)(=O)Nc3nccs3)c(F)cc21
Look at a and b . Which one has the lower recorded pIC50 number? When you have decided, please share the label of that item.
a

The origin of these recorded values is ChEMBL document CHEMBL4052683.
